assay-remarks: Apparent volume of distribution in Sprague-Dawley rat at 1 mg/kg, iv by LC-MS analysis
Assay type: ADME, organism-based
details: in vivo, read-out: Vz
assay-endpoint: Vd (L/kg)
All answers are understood in L/kg, so give the number only.

Exercise: Param item = "C=CC(=O)Nc1cccc(Nc2nc(Nc3ccc(N4CCN(C)CC4)cc3)nc3ccc(F)cc23)c1" ; retrieve measured Vd.
Solution: 2.52

====

assay-remarks: Cytotoxicity against human A549 cells harboring wild type EGFR assessed as reduction in cell viability measured after 72 hrs by MTT assay
Format: toxicity, cell-based
Mark each entry met if its IC50 at 72 h sits below 5 µM, and not met for all others.

Exercise: API: query returns whether the molecule falls strictly under 5 µM in IC50 at 72 h. Query: "C=CC(=O)Nc1cccc(Nc2nc(Nc3ccc(N(C)CCN(C)C)cc3OC)nc3ccc(F)cc23)c1"
Solution: not met

Exercise: Same lookup for "CC(C)=CC(=O)Nc1cccc(Nc2nc(Nc3ccc(N4CCN(C)CC4)cc3)nc3ccc(Cl)cc23)c1" , please.
Solution: not met

Exercise: Same lookup for "C=CC(=O)Nc1cccc(Nc2nc(Nc3ccc(N4CCN(C)CC4)cc3)nc3c2CCCC3)c1" , please.
Solution: not met

Exercise: Same lookup for "C=CC(=O)Nc1cccc(Nc2nc(Nc3ccc(N4CCN(C)CC4)cc3)nc3ccc(I)cc23)c1" , please.
Solution: not met

Exercise: Same lookup for "C=CC(=O)Nc1cccc(Nc2nc(Nc3ccc(N4CCC(N(C)C)CC4)cc3)nc3ccc(F)cc23)c1" , please.
Solution: met

Exercise: Same lookup for "C=CC(=O)Nc1cccc(Nc2nc(Nc3ccc(N4CCC(N(C)C)CC4)cc3)nc3ccc(Cl)cc23)c1" , please.
Solution: met

Exercise: Same lookup for "C=CC(=O)Nc1cccc(Nc2nc(Nc3ccc(N4CCN(C)CC4)cc3)nc3cc(OC)c(OC)cc23)c1" , please.
Solution: not met

Exercise: Same lookup for "C/C=C/C(=O)Nc1cccc(Nc2nc(Nc3ccc(N4CCN(C)CC4)cc3)nc3ccc(Cl)cc23)c1" , please.
Solution: met
